TARGET_OR_SYSTEM: human CYP11B2 (Homo sapiens (Human), UniProt P19099)
Sequence (P19099 25-503): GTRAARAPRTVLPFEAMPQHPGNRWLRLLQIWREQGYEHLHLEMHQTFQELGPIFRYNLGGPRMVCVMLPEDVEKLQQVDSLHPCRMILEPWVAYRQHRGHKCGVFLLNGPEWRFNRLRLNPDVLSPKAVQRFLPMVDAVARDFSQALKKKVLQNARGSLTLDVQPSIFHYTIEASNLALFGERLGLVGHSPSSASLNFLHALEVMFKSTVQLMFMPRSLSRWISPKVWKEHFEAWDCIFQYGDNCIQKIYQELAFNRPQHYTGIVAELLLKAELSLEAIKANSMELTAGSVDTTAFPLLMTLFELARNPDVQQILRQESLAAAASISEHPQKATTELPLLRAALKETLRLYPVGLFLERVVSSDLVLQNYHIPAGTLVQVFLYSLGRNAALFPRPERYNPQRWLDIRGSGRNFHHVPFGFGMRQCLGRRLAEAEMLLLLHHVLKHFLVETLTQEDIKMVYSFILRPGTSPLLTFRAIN
TEST_PROTOCOL: G-402 cellular enzyme assay, human CYP11B2 (aldosterone release, HTRF)
RUN_PARAMETERS: G-402 cells expressing human CYP11B2; 1 μM Deoxycorticosterone
Labelling field: enter met if recorded EC50 is less than 0.04 µM. Enter not met if it equals or exceeds that cut-off.

Before answering, review these 3 worked examples.
>>> print(df.to_string())
                                 cpd_smiles  category
0        COc1ccccc1-c1[nH]ncc1Oc1ccc(Cl)cc1       met
1  N#Cc1ccc(Oc2cn[nH]c2-c2ccccc2Cn2ccc(=O)cc2)cc1   not met
2     Fc1cc(Cl)ccc1-c1[nH]ncc1Oc1ccc(Cl)cc1   not met

Is EC50 strictly under 0.04 µM for the entry `N#Cc1ccc(Oc2cn[nH]c2-c2cnn(Cc3ccccc3)c2)cc1` ? not met

Also, `N#Cc1ccc(Oc2cn[nH]c2-c2cccc(COc3cccc(Cl)n3)c2)cc1` please. not met

Try this molecule next: `FC(F)(F)Oc1ccccc1-c1[nH]ncc1Oc1ccc(Cl)cc1` met

Ok, now `CS(=O)(=O)c1ccc(-c2[nH]ncc2Oc2ccc(C(F)(F)F)cc2)cc1` not met

# repeat for `N#Cc1ccc(Oc2cn[nH]c2-c2cccc(Cl)c2)cc1` not met

Now consider `N#Cc1ccc(Oc2cn[nH]c2-c2cccc(OCc3ccncc3)c2)cc1` and answer again. met

Please do the same for `CS(=O)(=O)c1ccc(-c2[nH]ncc2Oc2ccc(C#N)cc2)c(Cl)c1` as well. not met
